target: T1, extracellular tau in the form of paired helical filaments (ePHF tau) (UniProt P10636-8 1-441, limits assumed); test: ePHF tau ELISA, ePHF coated; antibody at 2.1 ng/ml; anti-mouse-HRP
T1 construct: Aggregated, hyperphosphorylated tau preparation; not a single defined polypeptide
T1 sequence (P10636 other isoform, or with tags, fused parts or gaps limits assumed): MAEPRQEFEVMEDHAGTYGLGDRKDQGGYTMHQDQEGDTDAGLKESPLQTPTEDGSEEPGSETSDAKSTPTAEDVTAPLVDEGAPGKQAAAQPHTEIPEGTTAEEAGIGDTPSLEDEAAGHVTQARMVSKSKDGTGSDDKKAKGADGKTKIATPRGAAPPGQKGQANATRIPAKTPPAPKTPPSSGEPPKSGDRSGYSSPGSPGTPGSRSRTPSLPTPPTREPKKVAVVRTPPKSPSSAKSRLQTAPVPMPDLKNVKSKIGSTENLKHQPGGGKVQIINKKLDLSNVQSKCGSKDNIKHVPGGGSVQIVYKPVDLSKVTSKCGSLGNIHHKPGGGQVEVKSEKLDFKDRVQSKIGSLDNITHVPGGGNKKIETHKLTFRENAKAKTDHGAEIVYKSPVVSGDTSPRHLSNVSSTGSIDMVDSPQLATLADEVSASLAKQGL

# binder, OD450 [OD450]
rows = [
    ("anti-tau antibody MC1 expressed from viral genome construct MC1HF.F2AL (TAU_ITR72; SEQ ID NO: 2061) (antibody, V domains shown) VH: QVQLQQSGAELMKPGASVKISCKATGYTFSNYWIEWVKQRPGHGLEWIGEILPGSDSIKYNENFKGKATFTADTSSNTAYMQLSSLTSEDSAVYYCARRGNYPDYWGQGTTLTVSS VL: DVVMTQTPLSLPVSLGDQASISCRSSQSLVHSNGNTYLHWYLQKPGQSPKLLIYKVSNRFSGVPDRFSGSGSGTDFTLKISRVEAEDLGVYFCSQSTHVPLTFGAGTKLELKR", 0.1),
    ("anti-tau antibody MC1 expressed from viral genome construct MC1LF.F2AH (TAU_ITR78; SEQ ID NO: 2067) (antibody, V domains shown) VH: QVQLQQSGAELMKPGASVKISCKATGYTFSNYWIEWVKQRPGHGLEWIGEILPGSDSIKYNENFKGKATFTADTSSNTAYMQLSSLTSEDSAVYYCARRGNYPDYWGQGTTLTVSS VL: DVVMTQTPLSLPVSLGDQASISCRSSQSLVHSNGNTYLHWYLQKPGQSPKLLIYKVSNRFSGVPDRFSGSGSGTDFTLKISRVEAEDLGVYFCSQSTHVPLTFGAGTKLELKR", 0.1),
    ("anti-tau antibody MC1 expressed from viral genome construct MC1HIRESL (TAU_ITR75; SEQ ID NO: 2064) (antibody, mouse IgG1, kappa, V domains shown) VH: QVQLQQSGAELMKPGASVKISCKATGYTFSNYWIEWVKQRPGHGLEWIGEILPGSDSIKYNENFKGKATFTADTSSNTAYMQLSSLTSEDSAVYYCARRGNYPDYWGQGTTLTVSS VL: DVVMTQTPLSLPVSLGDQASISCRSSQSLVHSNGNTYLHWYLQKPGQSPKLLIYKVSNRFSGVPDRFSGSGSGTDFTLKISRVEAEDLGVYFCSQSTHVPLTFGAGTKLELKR", 0.1),
]
